pKd listing for selected binders.
study system: T1, human CD3e/d (human, UniProt P07766 23-126; P04234 22-105)
T1 construct: Bought soluble protein; also called hCD3e/d; human CD3/ed (Sino CT038-H2508H)
T1 sequence (P07766 23-126, chain 1 of 2): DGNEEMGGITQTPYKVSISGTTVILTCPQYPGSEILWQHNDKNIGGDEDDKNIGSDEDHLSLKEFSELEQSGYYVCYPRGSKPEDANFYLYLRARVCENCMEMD
T1 sequence (P04234 22-105, chain 2 of 2): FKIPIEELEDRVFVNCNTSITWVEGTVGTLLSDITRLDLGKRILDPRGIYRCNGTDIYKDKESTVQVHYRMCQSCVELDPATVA
assay explanation: SPR (Carterra LSA), mAb on chip
pKd is defined as minus the log10 of a concentration measured in mol/L.

binder="mAb 156 (antibody, V domains shown, VH and VL only) VH: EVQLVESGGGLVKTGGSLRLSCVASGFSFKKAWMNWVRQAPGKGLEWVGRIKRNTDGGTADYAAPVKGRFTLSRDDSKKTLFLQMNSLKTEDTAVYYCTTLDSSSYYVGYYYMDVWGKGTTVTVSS VL: DIQMTQSPSSVSASVGDRVIITCRASQDINNWLAWYQQKAGKAPKLLIYTASSLQSGVPSRFSGSGSGTDFTLTIGSLQPEDFATYYCQQAHSLPITFGQGTRLEIK" meas_value=7.32
binder="mAb 162 (antibody, V domains shown, VH and VL only) VH: EVQLVESGGGLVQPGRSLRLSCAASGFTFDNYAMHWVRQAPGKGLEWVSGISWNSGSIGYADSVKGRFTISRDNAKNSLYLELNSLRAEDTALYYCAKDSSGYGYYYNYYMDVWGKGTTVTVSS VL: EIVMTQSPATLSVSPGERATLSCRASQSVRSNLAWYQQKPGQAPRLLIYGASTRATGIPAKFSGSGSGTEFTLTISSLQSEDFAVYYCQYYYNWPHFGQGTRLEIK" meas_value=7.71
binder="mAb 99 (antibody, V domains shown, VH and VL only) VH: QGQLVESGGGVVQPGRSLRLSCAASGFTFRGFGMHWVRQAPGKGLEWVAIIYYDGKNKYYADSVKGRFTISRDNSKNTLYLQMNSLRAEDTAVYYCAKGGGYNWFDPWGQGTLVTVSS VL: DIQMTQSPSSLSASVGDRVTITCRASQSISTYLNWYQQKPGKAPKLLIYSASSLQSGVPSRFSGSGSGTDFTLTISNLQPEDFAIYYCQRSYSPPFTFGPGTKLDIR" meas_value=8.05

Challenge: // pKd lookup, key: mAb 262 (antibody, V domains shown, VH and VL only) VH: EVRLLESGGGLVQPGGSLRLSCAASGFTFRSSSMAWVRQDPGKGLEWVTGIRGSGGRTYDADSVKGRFTISRDNSKNTLYLQMNSLRAEDTAEYYCAKLYDYYNDYMDVWGKGTTVTVSS VL: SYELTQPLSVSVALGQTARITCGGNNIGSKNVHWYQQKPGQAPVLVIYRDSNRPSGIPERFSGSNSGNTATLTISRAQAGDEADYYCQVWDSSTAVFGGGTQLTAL
Response given: 7.59

Challenge: # query: pKd of entry mAb 117 (antibody, V domains shown, VH and VL only) VH: EVQLVESGGGLVKTGGSLRLSCVASGFSFKKAWMNWVRQAPGKGLEWVGRIKRNTDGGTTDYAAPVKGRFTLSRDDSKNTLYLQMNSLKTEDTAVYYCTTLDSSSLYVGYYYMDVWGKGTTVTVSS VL: DIQMTQSPSSVSASVGDRVTITCRASQDINNWLAWYQQKPGKAPKLLIYTASSLQSGVPSRFSGSGSGTDFTLTISSLQPEDFATYYCQQAHSLPITFGQGTRLEIK
Response given: 7.39

Challenge: Query: pKd; subject: mAb 286 (antibody, V domains shown, VH and VL only) VH: EVKLVESGGGVVRPGGSLRLSCAASGFTFDDYGMSWVRQAPGKGLEWVSGISWNGGSTGYADSVKGRFTISRDNAKNSLYLQMNSLRAEDTALYHCARDGVPVVKRRYYYYYMDVWGKGTTVTVSS VL: EIVLTQSPDFQSVTPKEKVTITCRASQSIGSSLHWYQQKPDQSPKLLIKYASQSFSGVPSRFSGRGSGTDFTLTINSLEAEDAATYYCHQSGSLPQTFGQGTKVEIK
Response given: 6.24

Challenge: Record request: pKd value, item mAb 163 (antibody, V domains shown, VH and VL only) VH: EVQLVESGGGLVKTGGSLRLSCVASGFSFKKAWMNWVRQVPGKGLEWVGRIKRNTDGGTADYAAPVKGRFTLSRDDSKKTLFLQMNSLKTEDTAVYYCTTLDSSSYYVGYYYMDVWGKGTTVTVSS VL: DIQMTQSPSSVSASVGDRVIITCRASQDINNWLAWYQQKPGKAPKLLIYTASSLQSGVPSRFSGSGSGTDFTLTIGSLQPEDFATYYCQQAHSLPITFGQGTRLEIK
Response given: 7.38

Challenge: What pKd value was documented for this binder, mAb 240 (antibody, V domains shown, VH and VL only) VH: QGKLVESGGGVVQPGRSLRLSCVASGFTFSGYGMHWVRQAPNKGLEWVAIIYYDGKNKYYADSVKGRFTISRDNSKNTLYLQLNSLRAEDTAVYYCVRGPGYNWFDPWGQGTLVTVSS VL: EIVLTQSPDFQSVTPKEKVTITCRASQNIGSSLHWYQQKPDQSPKLLIKHASQSFSGVPSRFSGSGSGTDFTLTINSLEAEDAATYYCHQSSSLPYTFGQGTKLEIK ?
Response given: 7.74

Challenge: What pKd value was documented for this binder, mAb 94 (antibody, V domains shown, VH and VL only) VH: QVHLVESGGGVVQPGRSLRLSCSASGFTFSGYGMHWVRQAPGKGLEWVALIYFDGRNKYYADSVKGRFTISRDNSKNTLYLQMNSLRAEDTAVYYCARGGGYNWFDPWGQGTLVTVSS VL: DIQMTQSPSSLSASVGDRVTITCRASQSISNYLNWYQQKPGKAPKLLIYLASSLQSGVPSRFSGSGSGTDFTLTINSLQPEDFASYYCQLSYSSPFTFGPGTKVDVN ?
Response given: 8.80

Challenge: State the recorded pKd for this entry: mAb 318 (antibody, V domains shown, VH and VL only) VH: EGQLLESGGGLVQPGGSLRLSCAASGFTFSRYAMSWIRQAPGKGLEWVSVIDGSGGDKNYADSVKGRFTISRDNSKNSLYLLMNGLRVEDTAIYFCAKKFSYYYYYMDVWGKGTSVTVSS VL: SYELTQPLSVSVALGQTARITCGGNNIGGKDVHWYQQKPGQAPVLVIYRDSNRPSGIPERFSGSNSGNTATLTISRAQAGDEADYYCQVWDSRTAVFGGGTQLTAL
Response given: 7.08

Origin of measurements: patent US20230295310A1
